Provenance of the data: PubChem BioAssay AID504329

Entries and their inhibition values follow.
test.summary: H1N1 influenza NS1A inhibitors, functional cell based assay (AID 504329)
assay.conditions: percent inhibition, at 12.5 µM, stronger effect = higher value
Hit rate of the full screen: of about 340,000 compounds, about 1,000 (0.29%) were called active. The list is a sample of the results. Entries with a potency or affinity are not part of this list.
Respond numerically; units are % and should not be typed.

# compound, inhibition / %
rows = [
    ("COc1ccc(C(=O)NCCc2c[nH]c3ccccc23)cc1S(=O)(=O)N1CCCCC1C (configuration not stated)", -1.05),
    ("Cc1ccc(S(=O)(=O)N2CCN(S(=O)(=O)N3CCC(C)CC3)CC2)cc1C", 2.71),
    ("CCOC(=O)c1c(NC(=O)CSc2nncn2C)sc(C)c1C", -1.87),
    ("COc1ccc(NC(=O)[C@H](CCS(C)(=O)=O)N2Cc3ccccc3C2=O)c(OC)c1", 28.3),
    ("Cc1csc(NC(=O)CSc2nnc(NC(=O)C3CC(=O)N(c4ccccc4)C3)s2)n1 (configuration not stated)", -4.67),
    ("COc1cc(C2C(C#N)=C(N)Oc3c2ccc2ccccc32)ccc1OCC(=O)Nc1ccc(C)cc1 (configuration not stated)", 1.8),
    ("COc1ccc(-c2cc(C#N)nc(NN)n2)cc1", 4.09),
    ("Cc1ccccc1N1CCN(C2CCCN(C(=O)c3snnc3C)C2)CC1 (configuration not stated)", -10.7),
    ("N#Cc1nc(COc2cccc(Cl)c2)oc1N1CCN(c2ccccc2)CC1", -10.8),
    ("CC(NC(=O)c1ccc(NC(=O)CC2SC(N3CCCC3)=NC2=O)cc1)c1ccccc1 (configuration not stated)", -7.82),
]

(Q) Please look at this compound and report its inhibition: COc1cc(C(=O)N(C)C2CCCN(Cc3ccccc3F)C2)cc(OC)c1OC (configuration not stated)
(A) -3.71

(Q) Please look at this compound and report its inhibition: COc1ccc(C2C(C#N)=C(N)Oc3c2ccc2cccnc32)cc1OC (configuration not stated)
(A) -15.7

###

Entries and their inhibition values follow.
test.summary: H1N1 influenza NS1A inhibitors, functional cell based assay (AID 504329)
assay.conditions: percent inhibition, at 12.5 µM, stronger effect = higher value
Among all 340,000 compounds or so, about 1,000 (0.29%) were called active. These entries were drawn from the full list. Potency and affinity values are given separately.
Respond numerically; units are % and should not be typed.

Here's what some known entries look like.
# sample.smiles, inhibition, %
measured = [
    ("CCN(CC)C(=O)c1nn(Cc2ccccc2)c(=O)c2ccccc12", -5.91),
    ("CN(CCCNC(=O)c1cc2c(=O)[nH]c3ccccc3c2n1C)Cc1ccccc1", -0.58),
    ("O=S1(=O)[C@H]2CC3O[C@]2(C[C@@H]3c2ccc(F)cc2)CN1Cc1ccc(Cl)cc1", -1.02),
    ("COc1ccccc1-n1cc2c([N+](=O)[O-])cc([N+](=O)[O-])cc2n1", 41.1),
    ("CC1=NN(c2ccccc2)C(=O)/C1=C/N(C)C", 12.1),
]

(Q) Please look at this compound and report its inhibition: COc1ccc(CNc2nc3ccccc3n2CCN2CCCCC2)cc1
(A) 8.37

(Q) Please look at this compound and report its inhibition: Cc1ccc(S(=O)(=O)N(C)CCCC(=O)Nc2cccc3ccccc23)cc1
(A) 2.47

(Q) Please look at this compound and report its inhibition: CC(C)c1ccc(C(=O)OCC(=O)NC2CCCC2)cc1
(A) 1.66

(Q) Please look at this compound and report its inhibition: CC1=NN(c2ccccc2)C(=O)/C1=C/C=C/c1ccccc1
(A) 9.01

(Q) Please look at this compound and report its inhibition: CC1=NN(c2ccccc2)C(=O)/C1=C\C=C1\N(C)c2ccccc2C1(C)C
(A) 25.6

(Q) Please look at this compound and report its inhibition: Cc1c(N=C/C=C2\N(C)c3ccccc3C2(C)C)c(=O)n(-c2ccccc2)n1C
(A) 1.39

(Q) Please look at this compound and report its inhibition: Cc1c(NC(=O)c2ccc(C(=O)Nc3c(C)n(C)n(-c4ccccc4)c3=O)cc2)c(=O)n(-c2ccccc2)n1C
(A) 11.8

(Q) Please look at this compound and report its inhibition: CC1=NN(c2ccccc2)C(=O)/C1=C/c1cccs1
(A) 24.1

(Q) Please look at this compound and report its inhibition: O=C(CSc1nc(=O)n(CCCN2CCOCC2)c2c1CCC2)Nc1ccc(F)cc1F
(A) 0.02
